Assignment: determine reported pIC50 for the given compounds.
target: LC3B (Homo sapiens (Human), UniProt Q9GZQ8)
pIC50: −log10 of the molar value.

In the examples that follow, each entry is paired with its recorded pIC50.
Cc1n[nH]c(NC=C2C(=O)CC(C)(C)CC2=O)c1-c1ccccc1; 3.00 to 4.00
CN(C)C=C1C(=O)CC2(CC2)CC1=O; 3.00 to 4.00
O=c1c(=CNc2ccccc2)c(=O)c2cccc3cccc1c32; 4.00 to 4.82
CN(C)C=C1C(=O)CC(c2ccccc2)CC1=O (centres unmarked); 4.82 to 5.52

Then there is this compound:
Can you look up the measured pIC50 of CC1(C)CC(=O)C(=CNCCN2CCN(C(=O)Cc3ccc(F)cc3)CC2)C(=O)C1 for me?
3.00 to 4.00
